Source listed as PubChem BioAssay (NCI).

tested on: T-47D breast; assay: NCI tumour cell line growth inhibition, 48 h
readout-name: TGI

Use the examples below as a reference point.
compound	value-measured
C=C1C(=O)OC2/C=C(\C)C3OC3/C=C(/C(=O)OC)C(OC(C)=O)C(OC(=O)C(C)(O)C(C)OC(C)=O)C12 (centres undefined)	36.8 µM
CC(=O)OCC1OC(n2c(-c3ccccc3)c(C)c(C)c(C#N)c2=S)C(OC(C)=O)C(OC(C)=O)C1OC(C)=O (centres undefined)	> 100 µM
CC([O-])C(=O)[O-].NCC1CCC1CN.[Pt+4] (centres undefined)	> 10 µM
COc1cccc(-n2c(N)c(-c3nc4cc(C(F)(F)F)ccc4s3)c3ccc([N+](=O)[O-])cc3c2=O)c1	> 100 µM
O=C(O)C(F)(OC(F)(F)C(F)(OC(F)(F)C(F)(F)C(F)(F)F)C(F)(F)F)C(F)(F)F (centres undefined)	> 100 µM

Hi team, please reply with TGI for each item in this list.
1. CC1(C)O[C@@H]2[C@@H]3OC(=O)C[C@@H]3[C@@H](COCc3ccccc3)[C@@H]2O1
2. CCOC(=O)C1(Cc2ccccc2)Cc2ccccc2C1=O (centres undefined)
3. CC(=O)OC1COC(Nn2c(=O)[nH]c3ccccc3c2=O)C(OC(C)=O)C1OC(C)=O (centres undefined)
4. CCCCCC(/C=N/N)C(O)(C(F)(F)F)C(F)(F)F (centres undefined)

> 100 µM
88.3 µM
> 100 µM
> 10 µM

* * *

test system: HCT-15 colon; test: NCI tumour cell line growth inhibition, 48 h
*1 amine or outer side, *2 acyl side, *3 side chain or, on linkers, in order; H or OH if unused. Where a SMILES comes first, the peptide text is derived from it. Bridges are numbered along the chain shown (N, C = ends). [ ]: non-standard residue; d: D form. The star is where a group is joined. Phe(3-Me) = Cc1cccc(C[C@H](N)C(=O)O)c1; NH(4-Cl-2-F-phenyl) = Fc1cc(Cl)ccc1N*; Pro(4R-Me) = C[C@H]1CN[C@H](C(=O)O)C1; Propanoyl(3-NMe2) = CN(C)CCC(=O)*; Hyp = O=C(O)[C@@H]1C[C@@H](O)CN1; aThr = C[C@H](O)[C@H](N)C(=O)O; Pip = O=C(O)[C@@H]1CCCCN1; CO = O=C([*:1])[*:2]
Please go through the items and note down their TGI.

Use the examples below as a reference point.
molecule	value-measured
Cc1c2cccc-2c(OCCO)cc2c1[nH]c1ccccc12	22.9 µM
N#CC1=C(c2ccccc2)C(O)(c2ccccc2)NC1=O (configuration not stated)	> 100 µM
Cc1cccc(C[C@H](NC(=O)Nc2ccc(Cl)cc2F)C(=O)N[C@@H]2C(=O)N3C[C@H](OC(=O)CCN(C)C)C[C@H]3C(=O)N3CCCC[C@H]3C(=O)N[C@@H](C)C(=O)N3C[C@H](C)C[C@H]3C(=O)O[C@H]2C)c1 ({NH(4-Cl-2-F-phenyl)-CO}-[Phe(3-Me)][aThr][Hyp](Propanoyl(3-NMe2))[Pip]A[Pro(4R-Me)]; ester 2-C)	4.34 µM
C=C1C(=O)OC2/C=C(\C)C3OC3/C=C(/C(=O)OC)C(OC(C)=O)C(OC(=O)C(C)(O)C(C)OC(C)=O)C12 (configuration not stated)	> 34.1 µM
CC1=C(c2cc(C(=O)Nc3nccs3)nc(NC#N)n2)Sc2ccccc2N1	> 100 µM

Hi team, please reply with TGI for each item in this list.
1. O=C(O)C(F)(OC(F)(F)C(F)(OC(F)(F)C(F)(F)C(F)(F)F)C(F)(F)F)C(F)(F)F (configuration not stated)
2. CC(=O)O[C@H]1[C@@H](N2CCN(C)CC2)C[C@H]2[C@@H]3CC=C4C[C@@H](N5CCCC5)CC[C@]4(C)[C@H]3CC[C@@]21C

> 100 µM
> 100 µM

* * *

Please go through the items and note down their GI50.
tested on: RXF 393 renal; experiment: NCI tumour cell line growth inhibition, 48 h

compound	value-measured
COC(=O)c1ccc(C2SCC(=O)N2NC(=O)C(O)c2ccccc2)cc1 (configuration not stated)	> 100000 nM
CC[C@@]1(O)C(=O)OCc2c1cc1n(c2=O)Cc2c-1nc1ccccc1c2/C=N/OC(C)(C)C	< 10 nM

Hi team, please reply with GI50 for each item in this list.
1. O=C(/C=C/c1cccnc1)c1ccccc1O
2. O=C(CN1CCN(c2ccc(Cl)cc2)CC1)N1CCN(c2nnc(-c3ccccc3)c(-c3ccccc3)n2)CC1
3. COc1ccc(Cn2c(Br)c3c(c2-c2cc(OC)c(OC)c(OC)c2)CCc2sc(NC(C)=O)nc2-3)cc1
4. Nc1c(C(=O)Nc2ccccc2)sc2nc3c(cc12)CCCC3
5. C=C(CN1CCN(c2cccc(F)c2)CC1)c1ccc(C(=O)Nc2ccccc2N)cc1

1: 13800 nM; 2: 15000 nM; 3: 2240 nM; 4: 744 nM; 5: 563 nM

Hi team, please reply with GI50 for each item in this list.
1. C/C(=N\NC(=O)c1ccncc1)c1ccc(O)cc1O
2. COc1cc([C@@H]2c3cc4c(c(O)c3C[C@H]3COC(=O)[C@@H]32)OCO4)cc(OC)c1O
3. COc1cc2c3c(n(CCCCl)c(=O)c2cc1OC)-c1ccc(C#N)cc1C3=O
4. C[C@]12CC[C@H]3[C@@H](C[C@@H]4N=C(c5ccc(O)cc5)S[C@@]45C[C@H](O)CC[C@]35C)[C@@H]1CC[C@@H]2O
5. O=C(Nc1ccc(Br)cc1F)c1cc(Br)ccc1O
6. C[C@@]1(N2C(=O)OC[C@@H]2c2ccccc2)C(=O)N([C@H](CC(=O)N2CCC(N3CCCCC3)CC2)C(=O)NCc2cccc(C(F)(F)F)c2)[C@@H]1/C=C/c1ccccc1
7. COc1cc(OC)cc(-c2cncn2-c2ccc(-c3nc4cc(OC)c(OC)c(OC)c4s3)cc2)c1
8. CCCCCCCCCC(CCCC(O)CC(=O)O)OC1OC(COC2OC(C)C(O)C(O)C2O)C(O)C(O)C1OC1OC(CO)C(O)C(O)C1OC1OC(C)C(O)C(O)C1O (configuration not stated)

["12200 nM", "2.15 nM", "3850 nM", "377 nM", "661 nM", "2100 nM", "30200 nM", "> 40000 nM"]

Hi team, please reply with GI50 for each item in this list.
1. Cc1ccccc1/C=C1\CN(C(=O)OC(C)(C)C)C/C(=C\c2ccccc2C)C1=O
2. Cc1ccc(S(=O)(=O)n2cc(-c3nnnn3-c3ccc(Cl)cc3)c(=O)c3ccccc32)cc1

1. 1660 nM
2. 29600 nM

* * *

test system: MALME-3M melanoma; assay: NCI tumour cell line growth inhibition, 48 h; in the data active = GI50 below about 0.43 µM; inactive = the rest
Write down the outcome that applies. Available outcomes: active, inactive

Worked examples follow.
compound	class
Cc1ccccc1/C=C1\CN(C(=O)OC(C)(C)C)C/C(=C\c2ccccc2C)C1=O	inactive
O=C1c2cccnc2C(=O)c2c1c(C(=O)OCCN1CCOCC1)c1ccccn21	active
C[n+]1ccc(-c2c3nc(c(-c4ccc5c(ccc[n+]5C)c4)c4ccc([nH]4)c(-c4cc[n+](C)cc4)c4nc(c(-c5ccc6c(ccc[n+]6C)c5)c5ccc2[nH]5)C=C4)C=C3)cc1	inactive

Which outcome was entered for the compound CC([O-])C(=O)[O-].NCC1CCC1CN.[Pt+4] (centres undefined) in this test?
inactive

* * *

test system: SF-295 CNS; assay: NCI tumour cell line growth inhibition, 48 h
readout-name: GI50

Use the examples below as a reference point.
compound	GI50
COc1ccc(Cn2c(Br)c3c(c2-c2cc(OC)c(OC)c(OC)c2)CCc2sc(NC(C)=O)nc2-3)cc1	2410 nM
CC[C@@]1(O)C(=O)OCc2c1cc1n(c2=O)Cc2c-1nc1ccccc1c2/C=N/OC(C)(C)C	< 10 nM
CCc1ccc(Nc2cc(C)nc3nc(C)nn23)cc1	78200 nM

Hi team, please reply with GI50 for each item in this list.
1. COc1ccc(/C=C/C(=O)c2ccc(Nc3ccnc4cc(Cl)ccc34)cc2)cc1
2. C/C(=N\NC(=O)c1ccncc1)c1ccc(O)cc1O
3. O=C([O-])c1ccccc1Nc1ccccc1[O-].[Ni+3].[OH3+].[OH3+].[OH3+]

> 100000 nM
2390 nM
> 100000 nM

* * *

system: MDA-N; assay: NCI tumour cell line growth inhibition, 48 h
Please go through the items and note down their TGI.

Hi team, please reply with TGI for each item in this list.
1. Cc1cccc(NC(=S)N/N=C(/c2ccccc2)c2ccccn2)c1
2. CC(=O)OC1COC(Nn2c(=O)[nH]c3ccccc3c2=O)C(OC(C)=O)C1OC(C)=O (stereo unspecified)
3. COC(=O)C1C2CCCN2OC1(C)CO (stereo unspecified)
4. CCc1n[nH]c(=O)n1NC(=O)/C=C\C(=O)O

20.8 µM
> 100 µM
> 100 µM
> 100 µM

Hi team, please reply with TGI for each item in this list.
1. S=C1SC(c2ccc(Cl)cc2)(c2ccc(Cl)cc2)c2ccccc21
2. O=C(/C(=C/c1cccs1)c1ccccc1)c1ccccc1

> 100 µM
> 100 µM
